We begin with a simple list: items and their reported pIC50.
# TGT: Inosine-5'-monophosphate dehydrogenase (Cryptosporidium parvum, UniProt Q8T6T2)
# Sequence (Q8T6T2 whole entry): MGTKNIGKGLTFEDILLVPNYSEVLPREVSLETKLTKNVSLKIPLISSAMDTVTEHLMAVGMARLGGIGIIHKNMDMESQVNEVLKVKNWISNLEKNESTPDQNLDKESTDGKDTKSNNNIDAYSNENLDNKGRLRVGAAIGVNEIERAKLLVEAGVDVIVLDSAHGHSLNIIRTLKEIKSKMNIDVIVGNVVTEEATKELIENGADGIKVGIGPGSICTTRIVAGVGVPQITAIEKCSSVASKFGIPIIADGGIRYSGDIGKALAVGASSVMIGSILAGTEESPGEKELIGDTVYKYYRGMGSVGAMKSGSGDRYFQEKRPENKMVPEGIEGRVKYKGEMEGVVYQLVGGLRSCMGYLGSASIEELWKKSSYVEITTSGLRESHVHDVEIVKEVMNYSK
# PROTOCOL_NOTES: Inhibition of Cryptosporidium parvum N-terminal His6-tagged IMPDH-mediated NADH production expressed in Escherichia coli BL21(DE3) preincubated for 5 mins prior to substrate addition by fluorescence assay
pIC50: −log10 of the molar value.
VALUE_TYPE: pIC50

>  <COMPOUND>
CC(Oc1ccccc1)C(=O)Nc1ccc2nc(-c3ccncc3)[nH]c2c1 (stereo not drawn)

>  <VALUE_TYPE>
pIC50

>  <RESULT>
< 5.30

$$$$
>  <COMPOUND>
C[C@H](Oc1cccc(Cl)c1Cl)C(=O)Nc1cccc(NC(=O)c2ccncc2)c1

>  <VALUE_TYPE>
pIC50

>  <RESULT>
< 5.30

$$$$
>  <COMPOUND>
CC(Cc1ccccc1)C(=O)Nc1ccc2oc(-c3ccncc3)nc2c1 (stereo not drawn)

>  <VALUE_TYPE>
pIC50

>  <RESULT>
< 5.30

$$$$
